# tested.target: RORgT (Homo sapiens)
# Construct: Gal4 (fusion partner); expressed in transfected cells; host or cells: engineered Jurkat cells (Jurkat pEx/Gal/hRORγ CLBD/HYG pG5luc/blast)
# Sequence (P51449 267-516): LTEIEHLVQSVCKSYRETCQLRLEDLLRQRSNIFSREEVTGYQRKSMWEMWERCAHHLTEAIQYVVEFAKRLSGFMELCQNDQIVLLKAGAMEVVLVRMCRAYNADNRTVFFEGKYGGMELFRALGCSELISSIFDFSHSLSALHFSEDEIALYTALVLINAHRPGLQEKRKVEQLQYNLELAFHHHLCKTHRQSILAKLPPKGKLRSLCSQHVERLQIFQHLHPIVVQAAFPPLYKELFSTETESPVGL
# experimental.details: RORgT Gal4 Luciferase Reporter Gene Assay
# Format: cell-based
# condition.label: engineered Jurkat cells overexpressing RORgT (LBD or full length) with Gal4 Luc reporter; 18 hours at 37° C.; 40 μM to 0.67 nM; read-out: RORg_GAL4 EC50
For each of the compounds below, state its pEC50.
Value format note: pEC50 is -log10 of concentration (mol/L); just state the number.

(Q) Provide value of pEC50 for this record tested with RORgT (Homo sapiens): COc1ccc(Oc2c(Cl)ccc(C(=O)NCC3CN(S(C)(=O)=O)C3)c2Cl)cc1C(C)C
(A) 7.06

(Q) And the next one, COc1ncc(Oc2c(Cl)cc(NC(=O)CN3CCC(S(C)(=O)=O)CC3)cc2Cl)cc1C(C)C ?
(A) 7.40

(Q) And the next one, COCCN(C)C(=O)c1ccc(Cl)c(Oc2ccc(OC)c(C(C)C)c2)c1Cl ?
(A) 6.45

(Q) And the next one, COc1ccc(Oc2c(Cl)cc(NC(=O)OCC(C)(C)C#N)cc2Cl)cc1C(C)C ?
(A) 6.50

(Q) And the next one, COc1ccc(Oc2c(Cl)ccc(CNC(=O)C3CCN(S(=O)(=O)C4CC4)CC3)c2Cl)cc1C(C)C ?
(A) 7.85

(Q) And the next one, COc1ccc(Oc2c(Cl)ccc(C(=O)NCc3cccc(S(C)(=O)=O)c3)c2Cl)cc1C(C)C ?
(A) 5.12

(Q) And the next one, COc1ccc(Oc2c(Cl)ccc(C(=O)NCCc3ccccc3Cl)c2Cl)cc1C(C)C ?
(A) 5.41

(Q) And the next one, CC1(c2cc(F)cc(Oc3c(Cl)ccc(C(=O)NCc4ccc(S(N)(=O)=O)cc4)c3Cl)c2)CC1 ?
(A) 8.77

(Q) And the next one, CC(C)c1cc(Oc2c(Cl)ccc(C(=O)NCc3ccc(S(N)(=O)=O)cc3)c2Cl)ccc1F ?
(A) 8.28

(Q) And the next one, COc1ccc(Oc2c(Cl)cc(NC(=O)CC3CCCNC3)cc2Cl)cc1C(C)C (racemic) ?
(A) 6.53

(Q) And the next one, CCS(=O)(=O)N1CCC(CC(=O)Nc2cc(Cl)c(Oc3ccc(OC)c(C(C)C)c3)c(Cl)c2)CC1 ?
(A) 7.48

(Q) And the next one, COc1ncc(Oc2c(Cl)ccc(C(=O)NC(C)c3ccc(S(C)(=O)=O)cc3)c2Cl)cc1C(C)C (centres unmarked) [Example 143] ?
(A) 7.94

(Q) And the next one, COc1ccc(Oc2c(Cl)cc(NC(=O)N3CCOCC3)cc2Cl)cc1C(C)C ?
(A) 6.22

(Q) And the next one, COc1ccc(Oc2c(Cl)ccc(C(=O)N3CCC(c4ccccc4)CC3)c2Cl)cc1C(C)C ?
(A) 7.08

(Q) And the next one, COc1ccc(Oc2c(Cl)cc(NC(=O)Cc3ccnc(S(C)(=O)=O)c3)cc2Cl)cc1C(C)C ?
(A) 7.19

(Q) And the next one, CC1(c2cc(F)cc(Oc3c(Cl)ccc(C(=O)NCc4ccc(S(C)(=O)=O)cc4)c3Cl)c2)CC1 ?
(A) 8.29

(Q) And the next one, COc1ncc(Oc2c(Cl)ccc(C(=O)NCc3ccc(S(N)(=O)=O)cc3)c2Cl)cc1C(C)C ?
(A) 8.22

(Q) And the next one, COc1ccc(Oc2c(Cl)ccc(C(=O)NC3CCC(O)CC3)c2Cl)cc1C(C)C (centres unmarked) ?
(A) 6.07

(Q) And the next one, COc1ccc(Oc2c(Cl)cc(NC(=O)CN3CC[C@@H](NS(C)(=O)=O)C3)cc2Cl)cc1C(C)C ?
(A) 6.49

(Q) And the next one, CCS(=O)(=O)N1CCC(CNC(=O)c2ccc(Cl)c(Oc3cc(F)cc(C(C)C)c3)c2Cl)CC1 ?
(A) 7.60

(Q) And the next one, COc1ccc(Oc2c(Cl)ccc(C(=O)NCc3cc(C)no3)c2Cl)cc1C(C)C ?
(A) 6.25

(Q) And the next one, COc1ccc(Oc2c(Cl)cc(NC(=O)CCCc3ccccc3)cc2Cl)cc1C(C)C ?
(A) 6.55

(Q) And the next one, CS(=O)(=O)N1CC2(CCN(C(=O)c3ccc(Cl)c(Oc4cc(F)cc(CCC(F)(F)F)c4)c3Cl)CC2)C1 ?
(A) 7.05

(Q) And the next one, COc1ccc(Oc2c(Cl)cc(NC(=O)CN3CC4(C3)CN(S(=O)(=O)C3CC3)C4)cc2Cl)cc1C(C)C ?
(A) 6.05

(Q) And the next one, COc1ccc(Oc2c(Cl)cc(NC(=O)Cc3cccnc3)cc2Cl)cc1C(C)(C)C ?
(A) 6.57

(Q) And the next one, COc1ccc(Oc2c(Cl)ccc(C(=O)NCCO)c2Cl)cc1C(C)C ?
(A) 6.29
